B1: SMG5 (parent)
chain: QEKLQVLMAEGLLPAVKVFLDWLR

# Variants of: B1
# method-description: protein stability index of a GFP-peptide fusion (GPS, HEK-293T) (PSI 1-6); higher = more stable;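 note: lentivirally expressed fusions sorted by FACS into six bins by GFP to DsRed ratio, PSI derived from sequencing read proportions per bin multiplied by bin number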
# conditions: c terminus: a fixed tail appended
measured-endpoint: protein stability index
The reply should be a number, written without any unit.

# count of solved cases: 5
[
  {
    "variant-descriptor": "Q5P",
    "protein stability index": 2.22
  },
  {
    "variant-descriptor": "W22C",
    "protein stability index": 1.99
  },
  {
    "variant-descriptor": "W22Q",
    "protein stability index": 2.38
  },
  {
    "variant-descriptor": "E10T",
    "protein stability index": 2.89
  },
  {
    "variant-descriptor": "M8W",
    "protein stability index": 2.3
  }
]

Read the next record carefully.
Query :: Supply protein stability index value. Item: `R24C`
Result :: 1.59
